The values you see were collected from patent US20030148956A1.

Target: T1, corticotropin releasing factor 2 receptor
T1 sequence (Q13324 whole entry, species assumed, looked up): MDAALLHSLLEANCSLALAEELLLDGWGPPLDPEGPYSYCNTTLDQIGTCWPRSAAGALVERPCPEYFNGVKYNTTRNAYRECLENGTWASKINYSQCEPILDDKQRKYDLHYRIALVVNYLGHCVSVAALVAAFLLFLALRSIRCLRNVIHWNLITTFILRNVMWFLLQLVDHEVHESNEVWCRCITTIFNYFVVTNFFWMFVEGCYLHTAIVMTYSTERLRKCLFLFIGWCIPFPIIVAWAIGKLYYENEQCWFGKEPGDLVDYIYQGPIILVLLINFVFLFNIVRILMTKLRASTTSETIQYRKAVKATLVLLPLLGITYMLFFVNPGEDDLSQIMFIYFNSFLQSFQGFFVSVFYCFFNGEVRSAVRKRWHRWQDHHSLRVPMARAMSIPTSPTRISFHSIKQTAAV
Test: cell-based or functional assay
Ends that are not written are not given here.
CRF2R EC50 values by entry
EXPERIMENTAL READOUT: CRF2R EC50 (nM)

1) ZGPPISIDVPYHLLRKVIEIEKQEKEKQQAANNARLLDTI (C-terminal amide) [SEQ ID NO 376]: 52.5
2) ZGPPISIDLPFFLLRKVIEIEKQEKEKQQAANNALLLDTI (C-terminal amide) [SEQ ID NO 316]: 10.2
3) NDDPPISIDLPFFLLRNMIEMARIENEREQAGLNAKYLAEV-NH2 [SEQ ID NO 264]: 100
4) DNPSLSIDLPQYLLRTLLELARTQSQRERAEQNAIIFASV-NH2 [SEQ ID NO 339]: 100
5) ZGPPISIDLPLELLRKMIEIEKQEKEKQQAANNALLLDTI (C-terminal amide) [SEQ ID NO 235]: 25.7
6) DNPSLSIDLPLILLRTLLELEKTQSQRERAEQNAIIFASV-NH2 [SEQ ID NO 345]: 39.7
